LD50 at 336 h listing for selected compounds.
run.description: in vivo
measurement.conditions: mouse, ip
property.measured: LD50 at 336 h

compound	recorded.result
COC(=O)C1(C)Nc2c(O)cc3c(c2C1=O)C(CCl)CN3C(=O)c1cc2cc(OC)c(OC)c(OC)c2[nH]1 (centres unmarked)	0.25 to 1 mg/kg
COC(=O)C1(C)Nc2c(O)cc3c(c2C1=O)CC(Cl)CN3C(=O)c1cc2cc(OC)c(OC)c(OC)c2[nH]1 (centres unmarked)	1 to 2 mg/kg
